Entry source: patent US10953099B2

Test system: Raji human B-cell lymphoma cells
assay.remarks: Cell-titer-blue viability, Raji
Format: cell-based
particulars: in presence of sulfobutyl ether-β-cyclodextrin, 72 h
readout.label: IC50 (nM)

INSERT INTO measurements (compound, readout_label, display_unit, reading) VALUES
  ('N.N.[Cl][Pt][Cl] [Cisplatin]', 'IC50', 'nM', 2720),
  ('CCN(CC)C(=S)[S-].CCN(CC)C(=S)[S-].[Cu+2]', 'IC50', 'nM', 20);
